Let's look at some molecules and their measured IC50.
Test system: PERK (Homo sapiens (Human), UniProt Q9NZJ5)
Sequence (Q9NZJ5 30-1116): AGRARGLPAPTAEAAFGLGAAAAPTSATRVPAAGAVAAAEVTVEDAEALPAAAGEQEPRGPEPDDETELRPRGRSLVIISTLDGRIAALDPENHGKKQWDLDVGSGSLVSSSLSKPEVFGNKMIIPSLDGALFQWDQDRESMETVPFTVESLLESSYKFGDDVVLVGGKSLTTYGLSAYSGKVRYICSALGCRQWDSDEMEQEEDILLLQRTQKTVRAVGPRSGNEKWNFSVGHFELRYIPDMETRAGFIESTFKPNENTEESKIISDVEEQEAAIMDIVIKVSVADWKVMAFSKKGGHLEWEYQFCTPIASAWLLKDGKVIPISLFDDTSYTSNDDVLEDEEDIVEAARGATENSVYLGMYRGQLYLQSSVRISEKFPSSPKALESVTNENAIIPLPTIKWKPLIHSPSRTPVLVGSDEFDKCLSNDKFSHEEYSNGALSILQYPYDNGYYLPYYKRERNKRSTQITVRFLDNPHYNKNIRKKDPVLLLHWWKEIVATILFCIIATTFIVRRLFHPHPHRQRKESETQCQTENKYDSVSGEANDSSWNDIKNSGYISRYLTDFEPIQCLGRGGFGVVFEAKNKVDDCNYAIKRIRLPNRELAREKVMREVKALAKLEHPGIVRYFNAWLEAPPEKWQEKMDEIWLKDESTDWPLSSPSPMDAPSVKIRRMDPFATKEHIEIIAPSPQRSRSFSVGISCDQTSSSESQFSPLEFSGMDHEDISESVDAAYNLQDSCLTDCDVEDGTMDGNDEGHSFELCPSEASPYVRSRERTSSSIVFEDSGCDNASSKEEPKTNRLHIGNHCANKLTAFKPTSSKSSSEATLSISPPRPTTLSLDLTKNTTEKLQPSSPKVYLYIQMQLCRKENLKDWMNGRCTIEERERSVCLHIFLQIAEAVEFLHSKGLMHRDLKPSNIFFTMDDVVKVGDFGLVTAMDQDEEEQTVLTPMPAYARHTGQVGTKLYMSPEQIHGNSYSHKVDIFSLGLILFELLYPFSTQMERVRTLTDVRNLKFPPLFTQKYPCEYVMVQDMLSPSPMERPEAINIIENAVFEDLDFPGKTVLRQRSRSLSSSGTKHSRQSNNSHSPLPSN
Test description: PERK cellular assay (TR-FRET, HEK293-EGFP-eIF2α cells, tunicamycin-induced ER stress)
Assay type: cell-based
Recorded conditions: tunicamycin 2 hours, read-out: Cellular IC50 (μM) (EIF2a)
Procedure: Stable cell lines were created in HEK293 cells using lentiviral particles harboring an expression vector for GFP-eIF2α. Cells were selected using puromycin and enriched using fluorescence activated cell sorting against GFP. […] Cells were lysed and TR-FRET was measured in an EnVision plate reader (PerkinElmer). […] IC50 values were calculated using 4-parameter logistical fitting in XLFit.

Some solved entries appear below for comparison.
1. Cc1cc(NC(=O)Cc2ccccc2C(F)(F)F)ccc1-c1cnc(N)c(C(=O)NC(C)C)c1
0.501 to 1 µM
2. Nc1ncc(-c2ccc(NC(=O)C(O)c3cc(F)cc(F)c3)cc2Cl)nc1C(=O)NC1COC1 (stereo not drawn) [Example 168]
0.101 to 0.25 µM
3. Cc1cc(NC(=O)C(O)c2cc(F)cc(F)c2)ccc1-c1cnc(N)c(C(=O)OC(C)C)c1 (single isomer, unassigned) [Example 42]
0.026 to 0.05 µM
4. CCc1cccc(C(O)C(=O)Nc2ccc(-c3cnc(N)c(C(=O)NC(C)C)c3)c(CC)c2)c1 (stereo not drawn) [Example 106]
0.001 to 0.025 µM
5. Cc1cc(NC(=O)Cc2ccc3ncccc3c2)ccc1-c1cnc(N)c(C(=O)NC(C)C)c1
1 to 2 µM

Value of measured IC50 for the entry Cc1cc(NC(=O)C(O)c2cc(F)cc(F)c2)ccc1-c1cnc(N)c(C(=O)NC2COC2)c1 (stereo not drawn) [Example 24] : 0.051 to 0.1 µM

Value of measured IC50 for the entry `COc1ccc(CC(=O)Nc2ccc(-c3cnc(N)c(C(=O)NC(C)C)c3)c(C)c2)cc1` : 2 to 3 µM

Value of measured IC50 for the entry Cc1cc(NC(=O)C(O)c2cc(F)cc(F)c2)ccc1-c1ccc(N)nc1 (stereo not drawn) [Example 171] : > 5 µM

Value of measured IC50 for the entry CCNC(=O)c1cc(-c2ccc(NC(=O)C(O)c3cc(F)cc(F)c3)cc2C)cnc1N (single isomer, unassigned) [Example 12] : 0.026 to 0.05 µM
